Provenance of the data: BindingDB's records for doi:10.7270/Q2N301S8

# STUDY SYSTEM: Beta-secretase 1 (Homo sapiens, UniProt P56817)
# Sequence (P56817 whole entry): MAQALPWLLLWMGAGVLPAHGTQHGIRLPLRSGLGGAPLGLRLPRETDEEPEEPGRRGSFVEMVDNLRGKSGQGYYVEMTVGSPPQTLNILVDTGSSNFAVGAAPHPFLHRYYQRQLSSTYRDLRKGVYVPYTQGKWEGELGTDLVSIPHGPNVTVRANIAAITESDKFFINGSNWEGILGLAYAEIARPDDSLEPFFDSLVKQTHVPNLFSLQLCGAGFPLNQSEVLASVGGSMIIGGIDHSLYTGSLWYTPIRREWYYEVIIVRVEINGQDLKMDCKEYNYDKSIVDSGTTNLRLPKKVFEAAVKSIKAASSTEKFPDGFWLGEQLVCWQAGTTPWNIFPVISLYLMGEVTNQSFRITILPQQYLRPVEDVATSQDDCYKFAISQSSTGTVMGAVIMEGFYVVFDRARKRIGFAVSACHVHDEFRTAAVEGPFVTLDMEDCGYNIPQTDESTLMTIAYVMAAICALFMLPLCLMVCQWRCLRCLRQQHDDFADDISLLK
pIC50: −log10 of the molar value.
Response field class: enum, chosen by comparing pIC50 against lower range (below 6), middle range (6 to below 7), upper range (7 or more)

{"COMPOUND STRUCTURE": "CCCc1cc(CNC[C@@H](O)[C@@H]2C[C@H](C)CCCCCCOCC(=O)N(C)[C@@H](C)C(=O)N2)n[nH]1", "CAT": "middle range"}

[in] Please let me know in which category the item CCc1cc(CNC[C@@H](O)[C@@H]2Cc3cccc(c3)OCCCCOc3cc(cc(C(=O)N(C)C)c3)C(=O)N2)ncn1 belongs.
[out] lower range

[in] Lab log: CCOc1ccc(C(F)(F)F)c(CNC[C@@H](O)[C@@H]2C[C@H](C)CCOCCCCNc3cccc(c3)C(=O)N2)c1 — assign pIC50 category
[out] lower range

[in] Which bin, given its pIC50, does CC(C)c1cccc(CNC[C@@H](O)[C@@H]2Cc3cccc(c3)CCCCOc3cc(cc(-c4ncco4)c3)C(=O)N2)c1 occupy?
[out] middle range

[in] For the record Cc1cc2cc(n1)CCCCCc1cccc(c1)C[C@@H]([C@H](O)CNCc1cccc(C(C)C)c1)NC2=O , report the class its pIC50 corresponds to.
[out] lower range

[in] Which category fits this record: CC(C)(C)Cc1cc(C(C)(C)NC[C@@H](O)[C@@H]2Cc3cccc(c3)OCCCCOc3cc(Cl)cc(c3)C(=O)N2)no1
[out] upper range

###

# STUDY SYSTEM: UniProt:P56817
pIC50: −log10 of the molar value.
Quick rule: pIC50 of at least 7 means 1.0, below that means 0.0.

Please review the following examples before continuing.
{"COMPOUND STRUCTURE": "C[C@@H]1CCCCCCCOc2cc(cc(-c3ncco3)c2)C(=O)N[C@H]([C@H](O)CNC2(c3cc(C(C)(C)C)ccn3)CC2)C1", "CAT": 1.0}
{"COMPOUND STRUCTURE": "COCc1cc2cc(c1)C(=O)N[C@H]([C@H](O)[C@H]1CO[C@@H](COC)CN1)Cc1cccc(c1)OCCCCN2", "CAT": 0.0}
{"COMPOUND STRUCTURE": "CCOc1cc(CNC[C@@H](O)[C@@H]2C[C@H](C)CCOCCCCNc3cccc(c3)C(=O)N2)cc(C(F)(F)F)c1", "CAT": 0.0}
{"COMPOUND STRUCTURE": "CC(C)c1cccc(CNC[C@@H](O)[C@@H]2C[C@H](C)CCCCCCCC[C@@]3(O)CCC[C@H](C3)C(=O)N2)c1", "CAT": 0.0}
{"COMPOUND STRUCTURE": "Cc1cc2cc(n1)OCCCOCC[C@@H](C)C[C@@H]([C@H](O)CNCc1cccc(C(C)C)c1)NC2=O", "CAT": 0.0}
{"COMPOUND STRUCTURE": "CC(C)c1cccc(CNC[C@@H](O)[C@@H]2C[C@H](C)CCCCCOCC(=O)N(C)[C@@H](C)C(=O)N2)c1", "CAT": 0.0}
{"COMPOUND STRUCTURE": "Cc1cc2cc(n1)OCCCCOc1cccc(c1)C[C@@H]([C@H](O)CN[C@H]1CC(C)(C)Oc3ccc(C(C)C)cc31)NC2=O", "CAT": 1.0}
{"COMPOUND STRUCTURE": "CC(C)Cc1cncc(C(C)(C)NC[C@@H](O)[C@@H]2Cc3cccc(c3)OCCCCNc3cccc(c3)C(=O)N2)c1", "CAT": 0.0}
{"COMPOUND STRUCTURE": "CC(C)c1cccc(CNC[C@@H](O)[C@@H]2C[C@H](C)CCCCCCCN(S(C)(=O)=O)c3cc(cc(N(C)S(C)(=O)=O)c3)C(=O)N2)c1", "CAT": 0.0}
{"COMPOUND STRUCTURE": "CCCCNC(=O)[C@H](C)C[C@H](O)[C@H](Cc1ccccc1)NC(=O)c1cc(NCCCC)nc(OC)c1", "CAT": 0.0}

Shifting focus to the molecule that follows.
[in] Evaluate COc1cc2cc(n1)NCCCCCCC[C@@H](C)C[C@@H]([C@H](O)CNCc1cccc(C(C)C)c1)NC2=O : pIC50 at minimum 7?
[out] 1.0
